system: HCT-116 cell line; experiment: Inhibition of cell growth, MTT tetrazolium salt assay; assay type: cell-based; conditions: HCT-116 cells, 0.1 μM compound
Parameter: HCT-116 % Inhibition at 0.1 μM. Scope: all listed entries.
Express the result in % but write the number alone.

The cases that follow already have their HCT-116 % Inhibition at 0.1 μM on record.
CN(CCC#N)C(=O)c1ccc(Nc2nc(N)c(C(=O)c3c(F)cccc3F)s2)cc1 [Example G296] = 0
N#CCCN(Cc1cccnc1)C(=O)c1ccc(Nc2nc(N)c(C(=O)c3c(F)cccc3F)s2)cc1 [Example G316] = 1
Nc1nc(Nc2ccc(C(=O)Nc3ccc(CCO)cc3)cc2)sc1C(=O)c1c(F)cccc1F [Example G328] = 33
CC(=O)N(C)C1CCN(C(=O)c2ccc(Nc3nc(N)c(C(=O)c4c(F)cccc4F)s3)cc2)C1 (centres unmarked) [Example G348] = 23
CCC(C)CN(CCO)C(=O)c1ccc(Nc2nc(N)c(C(=O)c3c(F)cccc3F)s2)cc1 (centres unmarked) [Example G299] = 10

Requested read-out: HCT-116 % Inhibition at 0.1 μM. Entry: CCCCN(CCCCO)C(=O)c1ccc(Nc2nc(N)c(C(=O)c3c(F)cccc3F)s2)cc1 [Example G340]
28

Requested read-out: HCT-116 % Inhibition at 0.1 μM. Entry: Nc1nc(Nc2ccc(C(=O)NCCc3c[nH]c4ccccc34)cc2)sc1C(=O)c1c(F)cccc1F [Example G271]
8

Requested read-out: HCT-116 % Inhibition at 0.1 μM. Entry: COc1ccc(CCNC(=O)c2ccc(Nc3nc(N)c(C(=O)c4c(F)cccc4F)s3)cc2)cc1 [Example G238]
22

###

Parameter: HCT-116 % Inhibition at 0.1 μM. Scope: all listed entries.
test system: HCT-116 cell line; experiment: Inhibition of cell growth, MTT tetrazolium salt assay; assay type: cell-based; conditions: HCT-116 cells, 0.1 μM compound
Give the number first and the unit second.

The cases that follow already have their HCT-116 % Inhibition at 0.1 μM on record.
Cc1ccccc1CNC(=O)c1ccc(Nc2nc(N)c(C(=O)c3c(F)cccc3F)s2)cc1 = 30%
Nc1nc(Nc2ccc(C(=O)N3CCN(CCc4cccs4)CC3)cc2)sc1C(=O)c1c(F)cccc1F = 19%
CCCCN(CCCC)C(=O)c1ccc(Nc2nc(N)c(C(=O)c3c(F)cccc3F)s2)cc1 = 9%
Nc1nc(Nc2ccc(C(=O)NCCCCc3ccccc3)cc2)sc1C(=O)c1c(F)cccc1F = 5%
Nc1nc(Nc2ccc(C(=O)NCc3ccccc3Cl)cc2)sc1C(=O)c1c(F)cccc1F = 24%

Let us examine a further case.
Requested read-out: HCT-116 % Inhibition at 0.1 μM. Entry: COc1ccc(N2CCN(C(=O)c3ccc(Nc4nc(N)c(C(=O)c5c(F)cccc5F)s4)cc3)CC2)cc1
15%

###

biological target: human CDK4/cyclin D3 (Homo sapiens, UniProt P11802); construct: made in house; host or cells: insect cells co-infected with baculovirus vectors; assay: Inhibition of CDK4/cyclin D retinoblastoma kinase activity (Ki; % inhibition); assay type: biochemical; conditions: at 0.03 μM
Sequence (P11802 whole entry): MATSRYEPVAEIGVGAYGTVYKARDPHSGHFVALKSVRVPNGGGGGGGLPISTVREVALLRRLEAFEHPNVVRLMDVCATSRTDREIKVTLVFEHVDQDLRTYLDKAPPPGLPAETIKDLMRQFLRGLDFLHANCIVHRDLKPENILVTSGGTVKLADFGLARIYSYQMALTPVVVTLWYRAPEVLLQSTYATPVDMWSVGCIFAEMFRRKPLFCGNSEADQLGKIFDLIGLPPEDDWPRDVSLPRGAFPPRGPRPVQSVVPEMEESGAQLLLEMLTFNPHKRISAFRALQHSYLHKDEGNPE
Sequence (P30281 1-264 partner limits assumed): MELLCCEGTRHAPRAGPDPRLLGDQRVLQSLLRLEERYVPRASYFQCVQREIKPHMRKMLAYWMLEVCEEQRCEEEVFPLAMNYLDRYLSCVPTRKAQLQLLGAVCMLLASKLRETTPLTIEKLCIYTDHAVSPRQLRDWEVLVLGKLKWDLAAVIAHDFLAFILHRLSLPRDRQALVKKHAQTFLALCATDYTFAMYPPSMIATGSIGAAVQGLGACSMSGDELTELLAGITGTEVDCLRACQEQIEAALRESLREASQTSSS
Please mark label 1 if the recorded CDK4 % Inhibition at 0.03 μM is equal to or greater than 20%, and label 0 if it falls below.

Record excerpt, results attached:
C[C@@H](NC(=O)c1ccc(Nc2nc(N)c(C(=O)c3c(F)cccc3F)s2)cc1)c1ccccc1 [Example G166] = label 0
CC(=O)c1cccc(NC(=O)c2ccc(Nc3nc(N)c(C(=O)c4c(F)cccc4F)s3)cc2)c1 [Example G189] = label 0
CSc1ccccc1NC(=O)c1ccc(Nc2nc(N)c(C(=O)c3c(F)cccc3F)s2)cc1 [Example G31] = label 0
CN1CCCC1CCNC(=O)c1ccc(Nc2nc(N)c(C(=O)c3c(F)cccc3F)s2)cc1 (centres unmarked) [Example G147] = label 1
COCC(C)NC(=O)c1ccc(Nc2nc(N)c(C(=O)c3c(F)cccc3F)s2)cc1 (centres unmarked) [Example G103] = label 0

Hi, just wondering whether COc1cc(NC(=O)c2ccc(Nc3nc(N)c(C(=O)c4c(F)cccc4F)s3)cc2)ccc1C [Example G138] shows CDK4 % Inhibition at 0.03 μM of 20% or higher.
label 0

Hi, just wondering whether CCN1CC(NC(=O)c2ccc(Nc3nc(N)c(C(=O)c4c(F)cccc4F)s3)cc2)CN1CC [Example G150] shows CDK4 % Inhibition at 0.03 μM of 20% or higher.
label 1

Hi, just wondering whether CCOCCNC(=O)c1ccc(Nc2nc(N)c(C(=O)c3c(F)cccc3F)s2)cc1 [Example G136] shows CDK4 % Inhibition at 0.03 μM of 20% or higher.
label 0

###

Parameter: CDK4 % Inhibition at 0.03 μM. Scope: all listed entries.
target: human CDK4/cyclin D3 (Homo sapiens); construct: made in house; host or cells: insect cells co-infected with baculovirus vectors; test: Inhibition of CDK4/cyclin D retinoblastoma kinase activity (Ki; % inhibition); assay type: biochemical; conditions: 0.03 μM compound
Express the result in % but write the number alone.

The cases that follow already have their CDK4 % Inhibition at 0.03 μM on record.
Nc1nc(Nc2ccc(C(=O)NCCc3cccnc3)cc2)sc1C(=O)c1c(F)cccc1F = 12
Nc1nc(Nc2ccc(C(=O)NCCC3OCCO3)cc2)sc1C(=O)c1c(F)cccc1F = 13
Nc1nc(Nc2ccc(C(=O)NCc3ccc(OC(F)(F)F)cc3)cc2)sc1C(=O)c1c(F)cccc1F = 36
CN(CC(O)c1ccccc1)C(=O)c1ccc(Nc2nc(N)c(C(=O)c3c(F)cccc3F)s2)cc1 (stereo not shown) = 41
CCCCN(CC)CCNC(=O)c1ccc(Nc2nc(N)c(C(=O)c3c(F)cccc3F)s2)cc1 = 37

Let us examine a further case.
Requested read-out: CDK4 % Inhibition at 0.03 μM. Entry: Nc1nc(Nc2ccc(C(=O)Nc3ccc(Cl)cc3)cc2)sc1C(=O)c1c(F)cccc1F
11

###

tested on: HCT-116 cell line; assay: Inhibition of cell growth, MTT tetrazolium salt assay; assay type: cell-based; conditions: HCT-116 cells, 0.25 μM compound
Parameter: HCT-116 % Inhibition at 0.25 μM. Scope: all listed entries.
Express the result in % but write the number alone.

Requested read-out: HCT-116 % Inhibition at 0.25 μM. Entry: Nc1nc(Nc2ccc(C(=O)NCCCCCCO)cc2)sc1C(=O)c1c(F)cccc1F
55

###

target: CDK2/cyclin A (Homo sapiens, UniProt P24941); construct: made in house; host or cells: CDK2: insect cells (baculovirus); cyclin A: E. coli; assay: Inhibition of CDK2/cyclin A retinoblastoma kinase activity (Ki; % inhibition); assay type: biochemical; conditions: 0.03 μM compound
Parameter: CDK2 % Inhibition at 0.03 μM. Scope: all listed entries.
Express the result in % but write the number alone.

Nc1nc(Nc2ccc(C(=O)Nc3ccc4[nH]ccc4c3)cc2)sc1C(=O)c1c(F)cccc1F [Example G227] = 28
CCN(C)C(=O)c1ccc(Nc2nc(N)c(C(=O)c3c(F)cccc3F)s2)cc1 [Example G290] = −12
Nc1nc(Nc2ccc(C(=O)NCc3cc(F)ccc3F)cc2)sc1C(=O)c1c(F)cccc1F [Example G309] = 17

Recall the recorded CDK2 % Inhibition at 0.03 μM for CCN(Cc1ccccc1)C(=O)c1ccc(Nc2nc(N)c(C(=O)c3c(F)cccc3F)s2)cc1 [Example G209] with CDK2/cyclin A (Homo sapiens, UniProt P24941) and state it.
9

Recall the recorded CDK2 % Inhibition at 0.03 μM for Nc1nc(Nc2ccc(C(=O)NCc3ccc(F)cc3Cl)cc2)sc1C(=O)c1c(F)cccc1F [Example G278] with CDK2/cyclin A (Homo sapiens, UniProt P24941) and state it.
25

Recall the recorded CDK2 % Inhibition at 0.03 μM for COc1ccc(CCNC(=O)c2ccc(Nc3nc(N)c(C(=O)c4c(F)cccc4F)s3)cc2)cc1OC [Example G241] with CDK2/cyclin A (Homo sapiens, UniProt P24941) and state it.
22

Recall the recorded CDK2 % Inhibition at 0.03 μM for Nc1nc(Nc2ccc(C(=O)NC[C@@H]3CCCC[C@H]3O)cc2)sc1C(=O)c1c(F)cccc1F (relative stereo) [Example G350] with CDK2/cyclin A (Homo sapiens, UniProt P24941) and state it.
4

Recall the recorded CDK2 % Inhibition at 0.03 μM for Nc1nc(Nc2ccc(C(=O)NCc3cc(Cl)ccc3Cl)cc2)sc1C(=O)c1c(F)cccc1F [Example G286] with CDK2/cyclin A (Homo sapiens, UniProt P24941) and state it.
23

Recall the recorded CDK2 % Inhibition at 0.03 μM for Nc1nc(Nc2ccc(C(=O)NCCc3ccncc3)cc2)sc1C(=O)c1c(F)cccc1F [Example G268] with CDK2/cyclin A (Homo sapiens, UniProt P24941) and state it.
−11

###

target: human CDK4/cyclin D3 (Homo sapiens); construct: made in house; host or cells: insect cells co-infected with baculovirus vectors; test: Inhibition of CDK4/cyclin D retinoblastoma kinase activity (Ki; % inhibition); format: biochemical; conditions: 0.03 μM compound
readout.name: CDK4 % Inhibition at 0.03 μM (%)
Express the result in % but write the number alone.

COc1ccc(CCN(C)C(=O)c2ccc(Nc3nc(N)c(C(=O)c4c(F)cccc4F)s3)cc2)cc1OC = −1
Nc1nc(Nc2ccc(C(=O)NCc3cc(Cl)ccc3Cl)cc2)sc1C(=O)c1c(F)cccc1F = 25
CN(CCCNC(=O)c1ccc(Nc2nc(N)c(C(=O)c3c(F)cccc3F)s2)cc1)c1ccccc1 = 16

Let us examine a further case.
Requested read-out: CDK4 % Inhibition at 0.03 μM. Entry: Nc1nc(Nc2ccc(C(=O)Nc3cccc(Br)c3)cc2)sc1C(=O)c1c(F)cccc1F
7
